experiment: Selectivity index, ratio of IC50 for cytotoxicity against HEK293 cells to IC50 for antileishmanial activity against Leishmania major IR-173 promastigotes; type: toxicity, cell-based; conditions: human, read-out: Ratio IC50
Response field label takes 1 (yes) when selectivity ratio is strictly below 40 and 0 (no) in all other cases.

Examples with answers:
Asked: For "CCCCCCCCc1cn(CCCCCCN2C(=O)CN(/N=C/c3ccc([N+](=O)[O-])o3)C2=O)nn1" , is the recorded selectivity ratio below the cut-off of 40?
Given back: 1 (yes)

Asked: Could you please tell me whether selectivity ratio recorded for "O=C1CN(/N=C/c2ccc([N+](=O)[O-])o2)C(=O)N1CCCCCn1cc(CSc2ccccc2)nn1" is less than 40?
Given back: 0 (no)

Asked: Record "COc1ccc(-c2cn(CCCCCCN3C(=O)CN(/N=C/c4ccc([N+](=O)[O-])o4)C3=O)nn2)cc1" : is its selectivity ratio strictly below 40?
Given back: 1 (yes)

Asked: Given the entry "CCCCc1cn(CCCN2C(=O)CN(/N=C/c3ccc([N+](=O)[O-])o3)C2=O)nn1" , would its reported selectivity ratio be below 40?
Given back: 0 (no)

Asked: Is it true that selectivity ratio reported for "CCCCCc1cn(CCCN2C(=O)CN(/N=C/c3ccc([N+](=O)[O-])o3)C2=O)nn1" is less than 40?
Given back: 0 (no)

Asked: I wonder whether "CCCCCc1cn(CCCCCN2C(=O)CN(/N=C/c3ccc([N+](=O)[O-])o3)C2=O)nn1" has selectivity ratio below 40. Can you tell?
Given back: 1 (yes)

Asked: Please state whether selectivity ratio is below 40 for "CCCCCCc1cn(CCCCCCN2C(=O)CN(/N=C/c3ccc([N+](=O)[O-])o3)C2=O)nn1"
Given back: 1 (yes)

Asked: Strictly below 40 in selectivity ratio? "CCCCCCc1cn(CCCN2C(=O)CN(/N=C/c3ccc([N+](=O)[O-])o3)C2=O)nn1"
Given back: 1 (yes)

Asked: Is it true that selectivity ratio reported for "CCCCc1cn(CCCCCN2C(=O)CN(/N=C/c3ccc([N+](=O)[O-])o3)C2=O)nn1" is less than 40?
Given back: 0 (no)

Asked: Here's an entry: "COc1ccc(-c2cn(CCCN3C(=O)CN(/N=C/c4ccc([N+](=O)[O-])o4)C3=O)nn2)cc1" . Is its selectivity ratio below 40?
Given back: 1 (yes)

---
Asked: Find out if reported selectivity ratio for "CCCCCc1cn(CCCCCCN2C(=O)CN(/N=C/c3ccc([N+](=O)[O-])o3)C2=O)nn1" is less than 40
Given back: 0 (no)

Asked: In the record for "Cc1ccc(-c2cn(CCCCCN3C(=O)CN(/N=C/c4ccc([N+](=O)[O-])o4)C3=O)nn2)cc1" , is selectivity ratio less than 40?
Given back: 1 (yes)

Asked: # check: selectivity ratio < 40 for "O=C1CN(/N=C/c2ccc([N+](=O)[O-])o2)C(=O)N1CCCn1cc(-c2ccc(F)cc2)nn1"
Given back: 0 (no)

* * *

Reported selectivity ratio by item:
test: in vitro; settings: monkey, Vero cells
Description: Selectivity index, ratio of IC50 for cytotoxicity against African green monkey Vero cells to IC50 for leishmanicidal activity against Leishmania donovani 9515 amastigote infected in human THP-1 cells
Just the number.

Asked: Fill in the blank: the reported selectivity ratio of "O=C1OCCN1/N=C/c1ccc([N+](=O)[O-])o1" is ____.
Given back: 60

Asked: // selectivity ratio lookup, key: "CCCCc1cn(CCCCCN2C(=O)CN(/N=C/c3ccc([N+](=O)[O-])o3)C2=O)nn1"
Given back: 19

Asked: Data request, read-out selectivity ratio, for "O=Cc1ccc([N+](=O)[O-])o1"
Given back: 9

Next item in the queue.
Asked: Can you look up the measured selectivity ratio of "NC(=O)N/N=C/c1ccc([N+](=O)[O-])o1" for me?
Given back: 37
